run description: Cytotoxicity against rat RIN5F cells at 225 uM
Type: cell-based
Non-standard residues stand in square brackets, D forms with d. Residues, ends and D or L forms follow the SMILES beside them. NMeH = CN[C@@H](Cc1c[nH]cn1)C(=O)O; NMeT = CN[C@H](C(=O)O)[C@@H](C)O; NMeN = CN[C@@H](CC(N)=O)C(=O)O; NMeL = CN[C@@H](CC(C)C)C(=O)O; NMeV = CN[C@H](C(=O)O)C(C)C; NMeS = CN[C@@H](CO)C(=O)O; Sar = CNCC(=O)O
assay readout: Activity

- CC(C)C[C@@H](C(=O)N(C)[C@H](C(=O)N(C)[C@@H](Cc1cnc[nH]1)C(=O)N(C)[C@@H](CO)C(=O)N(C)[C@@H](CO)C(N)=O)C(C)C)N(C)C(=O)[C@@H](N)Cc1ccccc1 (H-F[NMeL][NMeV][NMeH][NMeS][NMeS]-NH2): Non-toxic
- CC(C)[C@@H](C(=O)N(C)CC(=O)N(C)[C@@H](CO)C(N)=O)N(C)C(=O)[C@H](CC(N)=O)N(C)C(=O)[C@H]([C@@H](C)O)N(C)C(=O)[C@@H](N)CO (H-S[NMeT][NMeN][NMeV][Sar][NMeS]-NH2): Non-toxic
- CC(C)C[C@@H](C(=O)N(C)[C@@H](C)C(N)=O)N(C)C(=O)[C@H](CCCNC(=N)N)N(C)C(=O)[C@H](CCC(N)=O)N(C)C(=O)[C@@H](N)[C@H](C)O: Non-toxic

---

run description: Cytotoxicity against rat RIN5F cells at 225 uM
Type: cell-based
Non-standard residues stand in square brackets, D forms with d. Residues, ends and D or L forms follow the SMILES beside them. NMeF = CN[C@@H](Cc1ccccc1)C(=O)O; NMeI = CC[C@H](C)[C@H](NC)C(=O)O; NMeT = CN[C@H](C(=O)O)[C@@H](C)O; NMeL = CN[C@@H](CC(C)C)C(=O)O; NMeA = CN[C@@H](C)C(=O)O; Sar = CNCC(=O)O
assay readout: Activity

• C[C@@H](O)[C@@H](C(=O)N(C)[C@@H](C)C(=O)N(C)[C@H](C(N)=O)[C@@H](C)O)N(C)C(=O)[C@@H](N)CC(N)=O (H-N[NMeT][NMeA][NMeT]-NH2) = Non-toxic
• C[C@H](NC(=O)[C@@H](NC(=O)[C@@H](N)CC(N)=O)[C@@H](C)O)C(=O)N[C@H](C(N)=O)[C@@H](C)O (H-NTAT-NH2) = Non-toxic
• CC[C@H](C)[C@@H](C(=O)N(C)[C@@H](CC(C)C)C(N)=O)N(C)C(=O)[C@H](C)N(C)C(=O)CN(C)C(=O)[C@H](Cc1ccccc1)N(C)C(=O)[C@@H](N)CC(N)=O (H-N[NMeF][Sar][NMeA][NMeI][NMeL]-NH2) = Non-toxic
